These entries and their values trace back to ChEMBL document CHEMBL1129324.

Biological target: Platelet-derived growth factor receptor (Mus musculus, UniProt P05622+P26618)
Assay: Inhibitory activity against platelet-derived growth factor receptor tyrosine kinase in Swiss 3T3 cells
pIC50: −log10 of the molar value.
recorded metric: pIC50

INSERT INTO assay_data (record_smiles, value_observed) VALUES
  ('COc1cc2nc(O)c(-c3ccccc3)nc2cc1OC', '< 4.30'),
  ('Cc1cc2ncc(-c3ccc(O)c(O)c3)nc2cc1C', 6.22),
  ('Cc1cc2nc(O)c(-c3ccccc3)[n+]([O-])c2cc1C', '< 4.30');

We next turn to a different molecule, shown below.
The molecule `Nc1ncnc2ncc(-c3ccccc3)nc12` , when measured on Platelet-derived growth factor receptor (Mus musculus, UniProt P05622+P26618), yielded pIC50 of < 4.30

###

Target: Platelet-derived growth factor receptor (Mus musculus, UniProt P05622+P26618)
Test: Inhibitory activity against platelet-derived growth factor receptor tyrosine kinase in Swiss 3T3 cells
recorded metric: pIC50
Convention used: pIC50 is expressed as -log10 of the molar concentration.

Here's what some known entries look like.
INSERT INTO measurements (record_smiles, value_observed) VALUES
  ('Cc1cc2nc(O)c(-c3ccccc3)nc2cc1C', 5.00),
  ('COc1cc2ncc(-c3ccccc3)nc2cc1OC', 6.10),
  ('c1csc(-c2cnc3ccccc3n2)c1', 4.00),
  ('c1ccc(-c2cnc3ccccc3n2)cc1', 5.00),
  ('O=[N+]([O-])c1ccc2ncc(-c3ccccc3)nc2c1', 4.60);

The compound `Cc1ccc2ncc(-c3ccccc3)nc2c1` , when measured on Platelet-derived growth factor receptor (Mus musculus, UniProt P05622+P26618), yielded pIC50 of 4.05

###

Target: Platelet-derived growth factor receptor (Mus musculus, UniProt P05622+P26618)
Assay: Inhibitory activity against platelet-derived growth factor receptor tyrosine kinase in Swiss 3T3 cells
recorded metric: IC50

Here's what some known entries look like.
INSERT INTO assay_data (compound, value_observed) VALUES
  ('c1ccc(-c2cnc3ncccc3n2)cc1', '35 µM'),
  ('CC(C)CCc1ccc(-c2cnc3ccccc3n2)s1', '> 100 µM'),
  ('Cc1cc2nc(C)c(C)nc2cc1C', '> 50 µM'),
  ('Cc1cc2nc(CP(=O)(O)O)c(-c3ccccc3)nc2cc1C', '> 50 µM'),
  ('c1ccc2nc(-c3ccsc3)cnc2c1', '> 100 µM'),
  ('Cc1nc2ccccc2nc1C', '> 100 µM'),
  ('c1ccc(-c2nc3ccccc3nc2-c2ccccc2)cc1', '> 50 µM'),
  ('COc1cc2nc(-c3ccccc3)cnc2cc1O', '100 µM'),
  ('Cc1cc2nc(-c3ccccn3)c(-c3ccccn3)nc2cc1C', '> 100 µM'),
  ('O=c1nc2[nH]c3ccccc3nc-2c(=O)[nH]1 [ALLOXAZINE]', '> 50 µM');

In plain terms, `Cc1nc2ccccc2nc1-c1ccccc1` has a documented IC50 of > 100 µM

In plain terms, `Cc1cc2nc(C(=O)O)c(-c3ccccc3)nc2cc1C` has a documented IC50 of 1 µM

In plain terms, `c1ccc(-c2cnc3cc4ccccc4cc3n2)cc1` has a documented IC50 of 0.9 µM

###

Target: Platelet-derived growth factor receptor (Mus musculus, UniProt P05622+P26618)
Assay: Inhibitory activity against platelet-derived growth factor receptor tyrosine kinase in Swiss 3T3 cells
pIC50: −log10 of the molar value.
recorded metric: pIC50

Here's what some known entries look like.
INSERT INTO results (record_smiles, value_observed) VALUES
  ('c1ccc(-c2ccc(-c3cnc4ccccc4n3)s2)cc1', '< 4.00'),
  ('Cc1cc2nc(CSCCOCCSCc3nc4cc(C)c(C)cc4nc3-c3ccccc3)c(-c3ccccc3)nc2cc1C', '< 4.30'),
  ('c1ccc(-c2nc3ccccc3nc2-c2ccccn2)nc1', 4.00),
  ('CCOP(=O)(Cc1nc2cc(C)c(C)cc2nc1-c1ccccc1)OCC', '< 4.30'),
  ('c1coc(-c2nc3ccccc3nc2-c2ccco2)c1', '< 4.00'),
  ('O=C(c1ccccc1)c1ccc2ncc(-c3ccccc3)nc2c1', 5.22);

In plain terms, `c1ccc2nc(-c3c[nH]c4ccccc34)cnc2c1` has a documented pIC50 of < 4.00

In plain terms, `Cc1cc2nc3[nH]c4ccc(Br)cc4c3nc2cc1C` has a documented pIC50 of < 4.30
